testedSystem: T1, activated Protein C (APC) (human, UniProt P04070 43-197; P04070 212-461)
T1 construct: also called human plasma APC
T1 sequence (P04070 43-197, chain 1 of 2): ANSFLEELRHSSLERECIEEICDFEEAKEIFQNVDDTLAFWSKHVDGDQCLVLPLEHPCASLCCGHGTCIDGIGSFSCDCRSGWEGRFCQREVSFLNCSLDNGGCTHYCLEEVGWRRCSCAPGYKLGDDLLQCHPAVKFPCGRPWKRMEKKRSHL
T1 sequence (P04070 212-461, chain 2 of 2): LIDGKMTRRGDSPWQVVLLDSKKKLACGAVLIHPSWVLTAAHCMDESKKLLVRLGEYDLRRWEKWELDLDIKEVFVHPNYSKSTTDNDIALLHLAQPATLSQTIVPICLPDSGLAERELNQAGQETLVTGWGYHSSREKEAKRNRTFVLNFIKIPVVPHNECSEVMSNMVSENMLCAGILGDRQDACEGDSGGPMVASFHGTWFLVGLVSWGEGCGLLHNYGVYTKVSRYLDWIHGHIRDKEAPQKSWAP
protocolNotes: preliminary pseudo-first-order inhibition kinetics, residual chromogenic activity
Record form. Attribute: second-order rate constant of inhibition. Fill in for each entry.
Numbers only, in M⁻¹ s⁻¹.

Reference set, count: 2
[
  {
    "binder": "A22 2.B10 PCI (P4SP2LP1′K) (other, As A22 WT PCI) APSSRRDFTFDLYRALASAAPSQNIFFSPVSISMSLAMLSLGAGSSTKMQILEGLGLNLQKSSEKELHRGFQQLLQELNQPRDGFQLSLGNALFTDLVVDLQDTFVSAMKTLYLADTFPTNFRDSAGAMKQINDYVAKQTKGKIVDLLKNLDSNAVVIMVNYIFFKAKWETSFNHKGTQEQDFYVTSETVVRVPMMSREDQYHYLLDRNLSCRVVGVPYQGNATALFILPSEGKMQQVENGLSEKTLRKWLKMFKKRQLELYLPKFSIEGSYQLEKVLPSLGISNVFTSHADLSGISNHSNIQVSEMVHKAVVEVDESGTRAAAATGTISTLRKARLNSQRLVFNRPFLMFIVDNNILFLGKVNRP",
    "second-order rate constant of inhibition, M⁻¹ s⁻¹": 430
  },
  {
    "binder": "A22 5.E12 PCI (P4HP2RP1′V) (other, As A22 WT PCI) APSSRRDFTFDLYRALASAAPSQNIFFSPVSISMSLAMLSLGAGSSTKMQILEGLGLNLQKSSEKELHRGFQQLLQELNQPRDGFQLSLGNALFTDLVVDLQDTFVSAMKTLYLADTFPTNFRDSAGAMKQINDYVAKQTKGKIVDLLKNLDSNAVVIMVNYIFFKAKWETSFNHKGTQEQDFYVTSETVVRVPMMSREDQYHYLLDRNLSCRVVGVPYQGNATALFILPSEGKMQQVENGLSEKTLRKWLKMFKKRQLELYLPKFSIEGSYQLEKVLPSLGISNVFTSHADLSGISNHSNIQVSEMVHKAVVEVDESGTRAAAATGTIHTRRVARLNSQRLVFNRPFLMFIVDNNILFLGKVNRP",
    "second-order rate constant of inhibition, M⁻¹ s⁻¹": 260
  }
]

Quick one: give measured second-order rate constant of inhibition for A22 4.H11 PCI (P4KP2RP1′H) (other, As A22 WT PCI) APSSRRDFTFDLYRALASAAPSQNIFFSPVSISMSLAMLSLGAGSSTKMQILEGLGLNLQKSSEKELHRGFQQLLQELNQPRDGFQLSLGNALFTDLVVDLQDTFVSAMKTLYLADTFPTNFRDSAGAMKQINDYVAKQTKGKIVDLLKNLDSNAVVIMVNYIFFKAKWETSFNHKGTQEQDFYVTSETVVRVPMMSREDQYHYLLDRNLSCRVVGVPYQGNATALFILPSEGKMQQVENGLSEKTLRKWLKMFKKRQLELYLPKFSIEGSYQLEKVLPSLGISNVFTSHADLSGISNHSNIQVSEMVHKAVVEVDESGTRAAAATGTIKTRRHARLNSQRLVFNRPFLMFIVDNNILFLGKVNRP
450
